Values from ChEMBL document CHEMBL1126236

target_or_system: Muscarinic acetylcholine receptor
procedure_details: Inhibition of [3H]- Oxo-M binding to muscarinic receptor of rat brain membrane preparations
metric: Ki (µM)
Kindly answer with a numeric value in µM, unit omitted.

Worked examples follow.
* CC(=O)OC1CC2CC1CN2Cc1ccccc1 (stereo unspecified) | 1.56
* CC(=O)O[C@H]1CC2CC1CN2C (stereo partly specified) | 0.23
* CC(=O)OC1CC2CC1N(C)C2 (stereo unspecified) | 5.37
* CC(=O)O[C@@H]1CC2CC1CN2C (stereo partly specified) | 1.43
* CC(=O)O[C@H]1CC2CC1N(Cc1ccccc1)C2 (stereo partly specified) | 7.21

Okay, next one:
Input: Name the value of Ki reported for CC(=O)O[C@@H]1CC2CC1N(Cc1ccccc1)C2 (stereo partly specified) when tested on Muscarinic acetylcholine receptor.
Output: 2.57

====

target_or_system: Muscarinic acetylcholine receptor
procedure_details: Inhibition of [3H]QNB binding to muscarinic receptor of rat brain membrane preparation.
# if measured Ki < 10 µM: criterion met  # else: criterion not met

A selection of reference data follows.
- CC(=O)O[C@H]1CC2CC1N(Cc1ccccc1)C2 (stereo partly specified): criterion met
- CC(=O)OC1CC2CC1CN2Cc1ccccc1 (stereo unspecified): criterion not met
- CC(=O)O[C@@H]1CC2CC1CN2C (stereo partly specified): criterion not met
- CC(=O)O[C@@H]1CC2CC1N(Cc1ccccc1)C2 (stereo partly specified): criterion not met

Input: Take the compound CC(=O)OC1CC2CC1N(C)C2 (stereo unspecified) and say whether its Ki is less than 10 µM.
Output: criterion not met

====

target_or_system: UniProt P08483
procedure_details: Inhibition of [3H]QNB binding to Muscarinic acetylcholine receptor M3 transfected with CHO cell
Type: cell-based
Simple rule here: Ki less than 10 µM is rule met, otherwise rule not met.

• CC(=O)O[C@@H]1CC2CC1N(Cc1ccccc1)C2 (some centres not stated) = rule not met
• CC(=O)O[C@@H]1CC2CC1CN2C (some centres not stated) = rule not met
• CN1CC2CC1C[C@H]2OC(=O)C(C)(c1ccccc1)c1ccccc1 (some centres not stated) = rule met

Input: Below 10 µM on Ki? Entry CC(=O)OC1CC2CC1CN2Cc1ccccc1 (configuration not stated)
Output: rule not met

Input: Does CC(=O)OC1CC2CC1N(C)C2 (configuration not stated) have Ki strictly under 10 µM?
Output: rule not met

Input: Consider CC(=O)O[C@H]1CC2CC1CN2C (some centres not stated) . Does its Ki lie strictly below 10 µM?
Output: rule not met

Input: Does the reported Ki of CN1CC2CC1C[C@@H]2OC(=O)C(C)(c1ccccc1)c1ccccc1 (some centres not stated) stay below 10 µM?
Output: rule met

====

target_or_system: UniProt:P08482
Sequence (P08482 whole entry): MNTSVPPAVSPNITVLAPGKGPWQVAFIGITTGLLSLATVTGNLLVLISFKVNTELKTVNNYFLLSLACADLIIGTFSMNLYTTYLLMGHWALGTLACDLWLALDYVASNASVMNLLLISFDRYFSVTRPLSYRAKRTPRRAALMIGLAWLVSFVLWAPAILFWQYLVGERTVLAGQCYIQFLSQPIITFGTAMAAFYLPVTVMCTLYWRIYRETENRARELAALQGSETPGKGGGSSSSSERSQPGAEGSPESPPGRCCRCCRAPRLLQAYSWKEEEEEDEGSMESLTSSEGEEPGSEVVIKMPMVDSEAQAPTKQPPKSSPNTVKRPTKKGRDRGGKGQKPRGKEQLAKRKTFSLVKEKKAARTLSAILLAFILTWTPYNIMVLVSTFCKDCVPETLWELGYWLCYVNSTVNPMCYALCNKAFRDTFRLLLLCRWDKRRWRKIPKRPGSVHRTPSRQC
Hi! Just check whether Ki is below 2 µM. Below gives met, equal or above gives not met.

Example results:
* CC(=O)OC1CC2CC1CN2Cc1ccccc1 (stereo not drawn) | not met
* CC(=O)OC1CC2CC1N(C)C2 (stereo not drawn) | not met
* CC(=O)O[C@H]1CC2CC1CN2C (stereo partly drawn) | not met
* CN1CC2CC1C[C@H]2OC(=O)C(C)(c1ccccc1)c1ccccc1 (stereo partly drawn) | met
* CC(=O)O[C@H]1CC2CC1N(Cc1ccccc1)C2 (stereo partly drawn) | not met
* CC(=O)O[C@@H]1CC2CC1CN2C (stereo partly drawn) | not met

Input: Determine whether this compound shows Ki lower than 2 µM (ties excluded): CC(=O)O[C@@H]1CC2CC1N(Cc1ccccc1)C2 (stereo partly drawn)
Output: not met

Input: Strictly below 2 µM: is that where Ki of CN1CC2CC1C[C@@H]2OC(=O)C(C)(c1ccccc1)c1ccccc1 (stereo partly drawn) sits?
Output: met

====

target_or_system: Muscarinic acetylcholine receptor M3 (Rattus norvegicus, UniProt P08483)
Sequence (P08483 whole entry): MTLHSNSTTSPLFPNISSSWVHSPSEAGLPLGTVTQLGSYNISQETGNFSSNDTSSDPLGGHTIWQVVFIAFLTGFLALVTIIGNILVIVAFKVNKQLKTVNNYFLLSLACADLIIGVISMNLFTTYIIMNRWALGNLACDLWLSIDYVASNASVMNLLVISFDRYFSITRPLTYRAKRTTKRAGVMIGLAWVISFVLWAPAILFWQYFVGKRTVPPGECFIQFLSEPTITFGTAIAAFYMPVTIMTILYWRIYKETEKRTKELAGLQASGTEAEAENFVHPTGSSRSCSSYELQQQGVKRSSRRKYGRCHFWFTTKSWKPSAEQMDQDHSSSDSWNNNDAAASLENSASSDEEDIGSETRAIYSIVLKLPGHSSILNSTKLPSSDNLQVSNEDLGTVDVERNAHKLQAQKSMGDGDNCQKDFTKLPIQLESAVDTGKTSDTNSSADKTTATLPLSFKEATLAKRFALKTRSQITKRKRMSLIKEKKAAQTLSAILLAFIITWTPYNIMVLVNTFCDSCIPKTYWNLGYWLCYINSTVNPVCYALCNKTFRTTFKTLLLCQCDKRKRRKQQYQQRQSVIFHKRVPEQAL
procedure_details: Inhibition of [3H]QNB binding to m3 receptor transfected with CHO cell
Type: cell-based
metric: pKi
Quick note: pKi values are minus log10 of concentrations in mol/L.

Input: Return pKi for the following molecule: CC(=O)O[C@H]1CC2CC1N(Cc1ccccc1)C2 (stereo partly specified)
Output: 4.73

====

The reader will find reported Ki values listed item by item below.
target_or_system: Muscarinic acetylcholine receptor
procedure_details: Inhibition of [3H]QNB binding to muscarinic receptor of rat heart membrane preparation.
Report the value in µM with no unit label.

* CC(=O)OC1CC2CC1CN2Cc1ccccc1 (stereo not drawn) | 10.3
* CC(=O)O[C@@H]1CC2CC1N(Cc1ccccc1)C2 (stereo partly drawn) | 15.3
* CN1CC2CC1C[C@H]2OC(=O)C(C)(c1ccccc1)c1ccccc1 (stereo partly drawn) | 0.00118
* CC(=O)OC1CC2CC1N(C)C2 (stereo not drawn) | 24.9
* CC(=O)O[C@H]1CC2CC1CN2C (stereo partly drawn) | 10.1
* CN1CC2CC1C[C@@H]2OC(=O)C(C)(c1ccccc1)c1ccccc1 (stereo partly drawn) | 0.00407
* CC(=O)O[C@H]1CC2CC1N(Cc1ccccc1)C2 (stereo partly drawn) | 15.1

Then this compound:
Input: Supply reported Ki belonging to this compound: CC(=O)O[C@@H]1CC2CC1CN2C (stereo partly drawn)
Output: 17.4
